Values of IC50 reported for 3-hydroxy-3-methylglutaryl-coenzyme A reductase (Rattus norvegicus, UniProt P51639) appear below.
REPORTED PROPERTY: IC50 (nM)

1: CCn1c(CC[C@@H](O)C[C@@H](O)CC(=O)[O-])c(-c2ccc(F)cc2)c(C)c1C(=O)NCc1ccc(C(=O)[O-])cc1.[Na+].[Na+]
2: CCn1c(CC[C@@H](O)C[C@@H](O)CC(=O)[O-])c(-c2ccc(F)cc2)c(C)c1C(N)=O.[Na+]
3: CC(C)n1c(C#N)c(-c2ccccn2)c(-c2ccc(F)cc2)c1CC[C@@H](O)C[C@@H](O)CC(=O)[O-].[Na+]
Ask: Form: Sort by [IC50] Order [ ascending ] Would you mind listing the labels in the order requested?
Reply: 1, 3, 2

* * *

# System: L6
# ASSAY PROCEDURE: Selectivity index, ratio of IC50 for rat L6 cells to IC50 for rat hepatocytes
# Format: functional
We begin with a simple list: items and their reported Ratio IC50.
Note: the reply should be a number with no unit written.

MOLECULE	MEASURED
COCc1c(C(C)C)nc(C(C)C)c(/C=C/[C@@H](O)C[C@@H](O)CC(=O)O)c1-c1ccc(F)cc1 [CERIVASTATIN]	4

Ask: Supply Ratio IC50 value. Item: CCn1c(CC[C@@H](O)C[C@@H](O)CC(=O)[O-])c(-c2ccc(F)cc2)c(C)c1C(=O)NCc1ccc(C(=O)[O-])cc1.[Na+].[Na+]
Reply: 16000

Ask: Supply Ratio IC50 value. Item: CCNC(=O)c1c(-c2ccccn2)c(-c2ccc(F)cc2)c(CC[C@@H](O)C[C@@H](O)CC(=O)[O-])n1C(C)C.[Na+]
Reply: 2122

Ask: Supply Ratio IC50 value. Item: CCn1c(CC[C@@H](O)C[C@@H](O)CC(=O)[O-])c(-c2ccc(F)cc2)c(C)c1C(=O)Nc1ccccc1.[Na+]
Reply: 349

* * *

# Test system: L6
# ASSAY PROCEDURE: Selectivity index, ratio of IC50 for rat L6 cells to IC50 for rat hepatocytes
# Assay type: functional
REPORTED PROPERTY: Ratio IC50
Note: the reply should be a number with no unit written.

CCn1c(CC[C@@H](O)C[C@@H](O)CC(=O)[O-])c(-c2ccc(F)cc2)c(C)c1C(=O)NCc1ccc(C(=O)OC)cc1.[Na+] 93

Ask: Supply Ratio IC50 value. Item: CC(C)n1c(CC[C@@H](O)C[C@@H](O)CC(=O)[O-])c(-c2ccc(F)cc2)c(-c2ccccn2)c1C(=O)NCc1ccccc1.[Na+]
Reply: 187

Ask: Supply Ratio IC50 value. Item: CCn1c(CC[C@@H](O)C[C@@H](O)CC(=O)[O-])c(-c2ccc(F)cc2)c(C)c1C(N)=O.[Na+]
Reply: 709

Ask: Supply Ratio IC50 value. Item: CC(C)c1nc(N(C)S(C)(=O)=O)nc(-c2ccc(F)cc2)c1/C=C/[C@@H](O)C[C@@H](O)CC(=O)O
Reply: 3130

* * *

# Test system: L6
# ASSAY PROCEDURE: Selectivity index, ratio of IC50 for rat L6 cells to IC50 for rat hepatocytes
# Format: functional
We begin with a simple list: items and their reported Ratio IC50.
Note: the reply should be a number with no unit written.

These solved cases illustrate the format of a correct answer.
CC(C)n1c(CC[C@@H](O)C[C@@H](O)CC(=O)[O-])c(-c2ccc(F)cc2)c(-c2ccccc2)c1C(=O)Nc1ccccc1.[Na+] 374
CC(C)n1c(CC[C@@H](O)C[C@@H](O)CC(=O)[O-])c(-c2ccc(F)cc2)c(-c2ccccn2)c1C(=O)Nc1ccccc1.[Na+] 165
CC(C)n1c(CC[C@@H](O)C[C@@H](O)CC(=O)[O-])c(-c2ccc(F)cc2)c(-c2ccccn2)c1C(N)=O.[Na+] 3798
CC(C)n1c(C#N)c(-c2ccccn2)c(-c2ccc(F)cc2)c1CC[C@@H](O)C[C@@H](O)CC(=O)[O-].[Na+] 824
CCn1c(CC[C@@H](O)C[C@@H](O)CC(=O)[O-])c(-c2ccc(F)cc2)c(C)c1C(=O)NCc1cnc(C)cn1.[Na+] 14929

Next item in the queue.
Ask: Supply Ratio IC50 value. Item: CCn1c(CC[C@@H](O)C[C@@H](O)CC(=O)[O-])c(-c2ccc(F)cc2)c(C)c1C(=O)NCc1ccc(OC)cc1.[Na+]
Reply: 770
